Let's look at some molecules and their measured EC50.
# System: VZV
# method notes: Viral qPCR assay, VZV
# Assay type: cell-based, varicella zoster virus
# condition label: Human alphaherpesvirus 3, 72 h, MeWo or MRC5 cells, 0.04-0.1 pfu/cell, growth medium, viral genome copies by qPCR
Unit nM implied. Number only.

Any idea what EC50 was measured for COc1nc(-c2ccc(C)o2)c(O[C@H]2CCN3C(=O)OC[C@@H]3C2)cc1C(=O)NCc1ccc(Cl)cc1 ?
307

Any idea what EC50 was measured for CN1C(=O)NC[C@@H]1COc1nc(-c2cnn(C(F)F)c2)c(O[C@H]2CCN3C(=O)OC[C@@H]3C2)cc1C(=O)NCc1ccc(Cl)cc1 ?
2180

Next item in the queue.
Any idea what EC50 was measured for COc1nc(-c2cnn(C(F)F)c2)c(O[C@H]2CCN3C(=O)OC[C@@H]3C2)cc1C(=O)NCc1ccc(C#N)cc1 ?
123

---

# experimental target: Human cytomegalovirus DNA polymerase (Human cytomegalovirus, UniProt P08546)
# Construct: made in house; host or cells: SF21 insect cells (baculovirus vector)
# Sequence (P08546 whole entry): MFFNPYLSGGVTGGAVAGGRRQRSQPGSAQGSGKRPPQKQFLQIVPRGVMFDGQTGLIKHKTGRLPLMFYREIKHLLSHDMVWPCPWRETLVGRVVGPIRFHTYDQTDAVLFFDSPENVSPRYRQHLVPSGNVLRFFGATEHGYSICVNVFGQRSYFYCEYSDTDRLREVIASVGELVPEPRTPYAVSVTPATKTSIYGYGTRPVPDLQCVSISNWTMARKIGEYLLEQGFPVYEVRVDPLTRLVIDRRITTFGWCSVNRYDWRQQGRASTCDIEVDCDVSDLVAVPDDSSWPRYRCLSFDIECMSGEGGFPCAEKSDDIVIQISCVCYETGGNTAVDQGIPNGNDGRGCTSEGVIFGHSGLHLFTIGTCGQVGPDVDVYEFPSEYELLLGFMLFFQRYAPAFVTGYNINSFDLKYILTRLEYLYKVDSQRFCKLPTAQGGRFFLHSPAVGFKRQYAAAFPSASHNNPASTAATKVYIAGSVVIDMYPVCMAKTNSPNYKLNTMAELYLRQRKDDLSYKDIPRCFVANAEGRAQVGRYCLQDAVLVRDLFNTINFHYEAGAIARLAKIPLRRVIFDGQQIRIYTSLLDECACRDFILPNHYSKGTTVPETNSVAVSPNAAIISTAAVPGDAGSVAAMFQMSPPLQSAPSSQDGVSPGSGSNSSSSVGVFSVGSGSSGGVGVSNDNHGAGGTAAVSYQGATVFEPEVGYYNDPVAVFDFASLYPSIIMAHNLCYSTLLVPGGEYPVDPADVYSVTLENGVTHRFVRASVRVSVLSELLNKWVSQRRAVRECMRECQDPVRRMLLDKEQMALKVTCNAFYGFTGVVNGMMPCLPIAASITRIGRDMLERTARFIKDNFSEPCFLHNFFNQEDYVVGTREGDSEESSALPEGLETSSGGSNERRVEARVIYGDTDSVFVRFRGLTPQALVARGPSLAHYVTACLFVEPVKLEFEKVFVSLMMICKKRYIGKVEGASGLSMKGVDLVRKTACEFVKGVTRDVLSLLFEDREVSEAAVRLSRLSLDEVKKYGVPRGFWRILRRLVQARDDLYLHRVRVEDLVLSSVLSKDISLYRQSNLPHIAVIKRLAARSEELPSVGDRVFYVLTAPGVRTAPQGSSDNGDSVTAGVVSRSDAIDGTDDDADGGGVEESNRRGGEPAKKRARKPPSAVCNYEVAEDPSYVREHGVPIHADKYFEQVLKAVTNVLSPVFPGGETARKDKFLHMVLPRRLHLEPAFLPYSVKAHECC
# method notes: CMV polymerase assay (AlphaLISA)
# Type: biochemical
# condition label: HCMV polymerase 0.2 nM; 30 min pre-incubation; 60 min at 37° C.; read-out: CMV (IC50)
recorded metric: IC50
Returns: string containing the numeric result and its unit.

Example entries and their recorded answers appear below.
Any idea what IC50 was measured for COc1nc(-c2cnn(C3CC3)c2)c(O[C@H]2CCN3C(=O)OC[C@@H]3C2)cc1C(=O)NCc1ccc(Cl)cc1 ?
3.69 nM

Any idea what IC50 was measured for COc1nc(-c2ncco2)c(O[C@H]2CCN3C(=O)OC[C@@H]3C2)cc1C(=O)N[C@@H](C)c1ccc(Cl)cc1 ?
69.3 nM

Any idea what IC50 was measured for COc1nc(-c2cnc(N)nc2)c(O[C@H]2CCN3C(=O)OC[C@@H]3C2)cc1C(=O)NCc1ccc(Cl)cc1 ?
2.3 nM

Next item in the queue.
Any idea what IC50 was measured for CN(C)CCCOc1nc(-c2cnn(C(F)F)c2)c(O[C@H]2CCN3C(=O)OC[C@@H]3C2)cc1C(=O)NCc1ccc(Cl)cc1 ?
1.46 nM

---

# Tested on: VZV
# method notes: Viral qPCR assay, VZV
# Assay type: cell-based, varicella zoster virus
# condition label: Human alphaherpesvirus 3, 72 h, MeWo or MRC5 cells, 0.04-0.1 pfu/cell, growth medium, viral genome copies by qPCR
Lab note: anything with EC50 below 300 nM is marked YES; values at 300 nM or higher are marked NO.

Study these solved cases before continuing.
is_below(EC50, 300 nM) for COc1nc(CC(C)(C)O)c(O[C@H]2CCN3C(=O)OC[C@@H]3C2)cc1C(=O)NCc1ccc(Cl)cc1 ?
NO

is_below(EC50, 300 nM) for COc1nc(-c2cc[nH]c2)c(O[C@H]2CCN3C(=O)OC[C@@H]3C2)cc1C(=O)NCc1ccc(Cl)cc1 ?
YES

is_below(EC50, 300 nM) for COc1nc(-c2cnn3c2CCC3)c(O[C@H]2CCN3C(=O)OC[C@@H]3C2)cc1C(=O)NCc1ccc(Cl)cc1 ?
NO

Below: the item to evaluate.
is_below(EC50, 300 nM) for COc1nc(-c2cc(C)no2)c(O[C@H]2CCN3C(=O)OC[C@@H]3C2)cc1C(=O)NCc1ccc(Cl)cc1 ?
YES
